Origin of values: patent US7846936B2

- target system: Lyn (Homo sapiens, UniProt P07948)
- Sequence (P07948 whole entry, species assumed): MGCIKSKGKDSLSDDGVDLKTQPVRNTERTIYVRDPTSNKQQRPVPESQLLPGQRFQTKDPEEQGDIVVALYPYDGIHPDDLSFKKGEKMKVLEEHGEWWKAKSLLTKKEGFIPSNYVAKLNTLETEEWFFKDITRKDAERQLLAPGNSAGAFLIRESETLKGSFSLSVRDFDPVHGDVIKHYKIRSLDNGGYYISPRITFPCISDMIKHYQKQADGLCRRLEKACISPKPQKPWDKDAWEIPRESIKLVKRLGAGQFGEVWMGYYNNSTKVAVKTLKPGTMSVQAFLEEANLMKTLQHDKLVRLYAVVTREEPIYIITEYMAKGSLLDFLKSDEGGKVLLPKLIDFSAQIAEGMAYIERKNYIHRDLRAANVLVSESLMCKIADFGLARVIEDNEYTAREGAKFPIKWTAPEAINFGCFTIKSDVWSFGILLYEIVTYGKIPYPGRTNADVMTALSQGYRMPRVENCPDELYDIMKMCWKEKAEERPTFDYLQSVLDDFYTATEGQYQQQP
endpoint: IC50 (nM)
Give a bare numeral; the unit nM is implied.

Exercise: Param item = `CCS(=O)(=O)O.COC(=O)c1ccc2c(c1)NC(=O)/C2=C(\Nc1ccc(N(C)C(=O)CN2CCN(C)CC2)cc1)c1ccccc1` ; retrieve measured IC50.
Solution: 195
